Molecular target: T1, human Claudin 18.2 (hCLDN18.2) (human, UniProt P56856-2 1-261)
T1 construct: whole, on cells; also called CLDN18A2; claudin 18 splice variant 2
Test: FACS, HEK293-hCLDN18.2 cells
Test readout: EC50 (µg/mL)
Could you give me the number in µg/mL? Just the number is fine.

Example cases with answers are listed next.
| Binder | EC50, µg/mL |
| --- | --- |
| ch-253C4-S32A (antibody, V domains shown, also called chimeric antibody of 253C4-S32A) VH: QVQLKQSGAELVRPGASVSLSCKTSGYIFTSYWIHWVKQRSGQGLEWIGRFYPGTGTAYYNENFEGKATLTADRSSSTAYMQLSSLKSDDSAVYFCTREGYGKGNAMDYWGQGTSVTVSS VL: DIVMTQSPSSLTVTTGEKVTLSCKSSQSLLNAGNQKNYLTWYQQKSGQPPELLIYWASTRESGVPDRFTGSGSGTDFTLTVSSVQAEDLAVYYCQNDYYFPFTFGGGTKLEIK | 0.207 |
| ch-299B2-G33A (antibody, V domains shown, also called chimeric antibody of 299B2-G33A) VH: QVQLKQSGPELVRPGASVKLSCKTSGYIFTNYWIHWVKQRSGQGLEWVVRIYPGTGNTYYNEKFTGKATLTADKSSSTAYMQLSSLKYEDSAVYFCSREGYGKGNSMDYWGQGTSVTVSS VL: DIVMTQSPSSLTVTAGEKVTMNCKSSQSLLNSANQKNYLTWYQQKPGQPPKLLFYWASTRESGVPDRFTGSGSGTDFTLTISSVQAEDLAVYHCQNAYYYPYTFGGGTKLEMK | 0.157 |
| ch-253C4-N31Q (antibody, V domains shown, also called chimeric antibody of 253C4-N31Q) VH: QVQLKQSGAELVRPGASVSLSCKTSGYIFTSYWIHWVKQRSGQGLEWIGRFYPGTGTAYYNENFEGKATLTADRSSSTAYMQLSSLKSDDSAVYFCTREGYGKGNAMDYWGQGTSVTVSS VL: DIVMTQSPSSLTVTTGEKVTLSCKSSQSLLQSGNQKNYLTWYQQKSGQPPELLIYWASTRESGVPDRFTGSGSGTDFTLTVSSVQAEDLAVYYCQNDYYFPFTFGGGTKLEIK | 0.175 |

# evaluate next
Request: Look at this binder and give its reported EC50. ch-299B2-S32A (antibody, V domains shown, also called chimeric antibody of 299B2-S32A) VH: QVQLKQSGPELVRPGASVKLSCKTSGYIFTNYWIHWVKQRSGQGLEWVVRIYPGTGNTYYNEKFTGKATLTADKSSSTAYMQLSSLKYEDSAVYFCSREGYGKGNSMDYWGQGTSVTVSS VL: DIVMTQSPSSLTVTAGEKVTMNCKSSQSLLNAGNQKNYLTWYQQKPGQPPKLLFYWASTRESGVPDRFTGSGSGTDFTLTISSVQAEDLAVYHCQNAYYYPYTFGGGTKLEMK
Response: 1.31

These measurements were taken from patent US20220411492A1.
